Source listed as paper PMC6268492.

Test system: HCT116
Protocol Details: MTT assay, cell proliferation
Type: cell-based
Experimental Parameters: Homo sapiens, HCT-116, 24 h, read-out: IC50, inhibition of cell proliferation
Reported IC50 values for the following compounds.
Give a bare numeral; the unit nM is implied.

Example entries and their recorded answers appear below.
CC(C)=CCCC1(C)C=Cc2c(O)c3c(c(CC=C(C)C)c2O1)OC12C(=CC4CC1C(C)(C)OC2(C/C=C(/C)C(=O)Oc1ccc(NC(=O)CCCl)cc1)C4=O)C3=O (centres unmarked) [Compound 9]    2050
CC(C)=CCC[C@]1(C)C=Cc2c(O)c3c(c(CC=C(C)C)c2O1)O[C@]12C(=C[C@@H]4C[C@H]1C(C)(C)O[C@@]2(C/C=C(/C)C(=O)O)C4=O)C3=O [GA, Gambogic acid]    590
CC(C)=CCCC1(C)C=Cc2c(O)c3c(c(CC=C(C)C)c2O1)OC12C(=CC4CC1C(C)(C)OC2(C/C=C(/C)C(=O)Sc1nccs1)C4=O)C3=O (centres unmarked) [Compound 29, S-thiazol-2-yl gambogthioate]    1630
CC(C)=CCCC1(C)C=Cc2c(O)c3c(c(CC=C(C)C)c2O1)OC12C(=CC4CC1C(C)(C)OC2(C/C=C(/C)C(=O)Nc1nccs1)C4=O)C3=O (centres unmarked) [Compound 32, Thiazol-2-gambogamide]    450

Note: attention shifts to another entry.
Ask: Any idea what IC50 was measured for CCCC(=O)Nc1ccc(OC(=O)/C(C)=C\CC23OC(C)(C)C4CC(C=C5C(=O)c6c(O)c7c(c(CC=C(C)C)c6OC542)OC(C)(CCC=C(C)C)C=C7)C3=O)cc1 (centres unmarked) [Compound 26, 4-Butyramidophenyl gambogate] ?
Reply: 1730

* * *

Test system: HUVEC
Protocol Details: MTT assay, cell proliferation
Type: cell-based, Human
Experimental Parameters: Homo sapiens, 24 h, read-out: IC50, inhibition of cell proliferation
List of pIC50 values.
Give only the number. pIC50 is defined as minus log10 of concentration in molar units.

Look over these answered cases.
CC(C)=CCCC1(C)C=Cc2c(O)c3c(c(CC=C(C)C)c2O1)OC12C(=CC4CC1C(C)(C)OC2(C/C=C(/C)C(=O)Oc1ccc(Br)cc1)C4=O)C3=O (stereo not shown) [Compound 19, 4-Bromophenyl gambogate]    4.17
CCCC(=O)Nc1ccc(OC(=O)/C(C)=C\CC23OC(C)(C)C4CC(C=C5C(=O)c6c(O)c7c(c(CC=C(C)C)c6OC542)OC(C)(CCC=C(C)C)C=C7)C3=O)cc1 (stereo not shown) [Compound 26, 4-Butyramidophenyl gambogate]    5.53
COc1ccc(OC(=O)/C(C)=C\CC23OC(C)(C)C4CC(C=C5C(=O)c6c(O)c7c(c(CC=C(C)C)c6OC542)OC(C)(CCC=C(C)C)C=C7)C3=O)cc1 (stereo not shown) [Compound 13, 4-Methoxyphenyl gambogate]    4.56
COc1ccc(OC(=O)/C(C)=C\CC23OC(C)(C)C4CC(C=C5C(=O)c6c(O)c7c(c(CC=C(C)C)c6OC542)OC(C)(CCC=C(C)C)C=C7)C3=O)cc1Br (stereo not shown) [Compound 22, 2-Bromo-4-methoxyphenyl gambogate]    4.29
CC(C)=CCCC1(C)C=Cc2c(O)c3c(c(CC=C(C)C)c2O1)OC12C(=CC4CC1C(C)(C)OC2(C/C=C(/C)C(=O)Oc1ccc2ccc(=O)oc2c1)C4=O)C3=O (stereo not shown) [Compound 7, Coumarin-7-gambogate]    4.96

As a next step, examine the compound that follows.
Ask: Report pIC50 for CC(C)=CCCC1(C)C=Cc2c(O)c3c(c(CC=C(C)C)c2O1)OC12C(=CC4CC1C(C)(C)OC2(C/C=C(/C)C(=O)Oc1ccc(C=O)cc1)C4=O)C3=O (stereo not shown) [Compound 20, 4-Formylphenyl gambogate] please.
Reply: 5.11
